target: active GPIIb/IIIa (Homo sapiens, UniProt P05106+P08514); construct: Platelet rich plasma (PRP) containing 3×10^8 platelets/ml was prepared from human blood; endogenous in cells; assay: Test 1: inhibitory activity of adenosine diphosphate (ADP)-induced platelet aggregation in platelet rich plasma; type: cell-based; conditions: IC50 (R) of Test 2 / IC50 (A) of Test 1; selective binding ability toward the active GPIIb/IIIa
Sequence (P08514 32-887 limits assumed): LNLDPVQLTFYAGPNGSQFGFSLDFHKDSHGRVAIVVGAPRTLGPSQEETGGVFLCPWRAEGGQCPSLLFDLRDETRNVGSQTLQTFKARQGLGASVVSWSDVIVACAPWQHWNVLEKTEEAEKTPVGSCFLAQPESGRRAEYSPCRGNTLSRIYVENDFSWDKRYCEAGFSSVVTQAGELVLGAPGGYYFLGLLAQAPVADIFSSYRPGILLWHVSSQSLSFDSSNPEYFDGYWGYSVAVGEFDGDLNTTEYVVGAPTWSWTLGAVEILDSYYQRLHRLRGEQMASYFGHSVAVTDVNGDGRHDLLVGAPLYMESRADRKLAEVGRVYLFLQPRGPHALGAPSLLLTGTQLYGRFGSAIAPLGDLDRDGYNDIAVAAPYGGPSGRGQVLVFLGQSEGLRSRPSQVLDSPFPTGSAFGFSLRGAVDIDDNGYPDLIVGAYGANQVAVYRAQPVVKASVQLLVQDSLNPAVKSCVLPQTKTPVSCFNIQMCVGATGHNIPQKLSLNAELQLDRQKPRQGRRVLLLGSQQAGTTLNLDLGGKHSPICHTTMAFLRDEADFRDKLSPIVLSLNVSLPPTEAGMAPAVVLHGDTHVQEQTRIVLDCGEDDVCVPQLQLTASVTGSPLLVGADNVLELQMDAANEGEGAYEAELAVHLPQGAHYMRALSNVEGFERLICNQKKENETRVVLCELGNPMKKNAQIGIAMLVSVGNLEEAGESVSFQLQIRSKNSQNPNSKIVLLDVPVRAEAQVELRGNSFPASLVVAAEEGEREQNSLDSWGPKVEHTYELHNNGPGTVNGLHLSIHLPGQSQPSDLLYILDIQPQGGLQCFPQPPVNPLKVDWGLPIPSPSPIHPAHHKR
Sequence (P08514 891-1039 partner limits assumed): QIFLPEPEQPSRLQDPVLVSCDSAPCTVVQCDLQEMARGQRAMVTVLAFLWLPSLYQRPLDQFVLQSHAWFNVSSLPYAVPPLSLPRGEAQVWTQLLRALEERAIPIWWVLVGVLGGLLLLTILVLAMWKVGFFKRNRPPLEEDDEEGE
Sequence (P05106 27-788): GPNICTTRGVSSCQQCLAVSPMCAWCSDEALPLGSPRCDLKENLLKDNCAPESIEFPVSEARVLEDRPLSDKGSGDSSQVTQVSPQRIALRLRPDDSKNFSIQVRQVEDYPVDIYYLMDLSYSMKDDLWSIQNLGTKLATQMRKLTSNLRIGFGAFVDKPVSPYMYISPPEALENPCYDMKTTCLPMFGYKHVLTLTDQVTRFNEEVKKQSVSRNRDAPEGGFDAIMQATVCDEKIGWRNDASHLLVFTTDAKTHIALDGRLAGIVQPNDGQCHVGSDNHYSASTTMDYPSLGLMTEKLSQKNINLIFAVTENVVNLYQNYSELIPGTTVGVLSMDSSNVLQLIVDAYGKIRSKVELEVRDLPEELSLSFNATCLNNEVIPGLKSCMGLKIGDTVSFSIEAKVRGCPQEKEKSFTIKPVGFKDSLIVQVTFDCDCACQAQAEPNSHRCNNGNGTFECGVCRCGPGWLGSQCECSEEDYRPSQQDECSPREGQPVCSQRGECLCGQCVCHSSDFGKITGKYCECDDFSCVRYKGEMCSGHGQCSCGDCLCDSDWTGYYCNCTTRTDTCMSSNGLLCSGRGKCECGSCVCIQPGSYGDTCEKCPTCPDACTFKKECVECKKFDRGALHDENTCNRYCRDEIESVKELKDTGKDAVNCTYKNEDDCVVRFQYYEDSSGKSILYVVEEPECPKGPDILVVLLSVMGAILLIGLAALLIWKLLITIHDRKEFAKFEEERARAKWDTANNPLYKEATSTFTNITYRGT
Answer each item with its documented R/A ratio.
Answers are plain numbers.

Query block: Quick check: R/A ratio on active GPIIb/IIIa (Homo sapiens, UniProt P05106+P08514), item `COc1ccc(CCC(=O)N[C@@H](CNC(=O)[C@@H]2CCCN(C(=O)CCC3CCNCC3)C2)C(=O)O)cc1` ?
Result block: 6.5

Query block: Quick check: R/A ratio on active GPIIb/IIIa (Homo sapiens, UniProt P05106+P08514), item `COc1ccc(CCC(=O)N[C@H](CNC(=O)[C@@H]2CCCN(C(=O)CCC3CCNCC3)C2)C(=O)O)cc1` ?
Result block: 15

Query block: Quick check: R/A ratio on active GPIIb/IIIa (Homo sapiens, UniProt P05106+P08514), item `COC(=O)COc1ccc(C(=O)N[C@H](CNC(=O)[C@@H]2CCCN(C(=O)CCC3CCNCC3)C2)C(=O)O)cc1` ?
Result block: 16

For each of the compounds below, state R/A ratio.
1. CC(C)CCC(=O)Nc1cccc(C(=O)N[C@@H](CNC(=O)[C@H]2CCCN(C(=O)CCC3CCNCC3)C2)C(=O)O)c1
2. CC(C)CCCOc1ccc(C(=O)N[C@@H](CNC(=O)[C@H]2CCCN(C(=O)CCC3CCNCC3)C2)C(=O)O)cc1
3. COc1cc(C(=O)CN(C)C(=O)/C=C/C2CCNCC2)ccc1OCC(=O)O
4. CN(CC(=O)c1ccc(OCC(=O)O)c(OCCF)c1)C(=O)/C=C/C1CCNCC1

Result block:
[17, 7.9, 14, 19]

* * *

target: active GPIIb/IIIa (Homo sapiens, UniProt P05106+P08514); construct: Platelet rich plasma (PRP) containing 3×10^8 platelets/ml was prepared from human blood; endogenous in cells; experiment: Test 1: inhibitory activity of adenosine diphosphate (ADP)-induced platelet aggregation in platelet rich plasma; settings: human PRP 3×10^8 platelets/ml, ADP final concentration 2.5 μM, 37° C.; read-out: A Inhibition of platelet aggregation IC50
Counter-ions that a name gives are not always drawn.
Answer each item with its documented pIC50.
Answers are plain numbers, as −log10 of the molar value.

Query block: Quick check: pIC50 on active GPIIb/IIIa (Homo sapiens, UniProt P05106+P08514), item N[C@@H](CNC(=O)[C@@H]1CCCN(C(=O)CCC2CCNCC2)C1)C(=O)O [Ex. 10] ?
Result block: 6.57

For each of the molecules below, state pIC50.
1. CN(CC(=O)c1ccc(OCC(=O)O)c(OCCF)c1)C(=O)/C=C/C1CCNCC1 [Ex. 15]
2. CC(=O)OCC(=O)N[C@H](CNC(=O)[C@@H]1CCCN(C(=O)CCC2CCNCC2)C1)C(=O)O [Ex. 9]
3. CC(C)[C@H](NC(=O)[C@H](CC(=O)O)NC(=O)CCCOc1ccc(C(=N)N)cc1)C(=O)O [Reference Ex. 4, FK633, reference compound]
4. COc1ccc(CCC(=O)N[C@H](CNC(=O)[C@@H]2CCCN(C(=O)CCC3CCNCC3)C2)C(=O)O)cc1 [Ex. 7]
5. CN(CC(=O)c1ccc(OCC(=O)O)c(OCC(=O)O)c1)C(=O)/C=C/C1CCNCC1 [Ex. 1, hydrochloride]
6. COc1ccc(CCC(=O)N[C@@H](CNC(=O)[C@@H]2CCCN(C(=O)CCC3CCNCC3)C2)C(=O)O)cc1 [Ex. 11]

Result block:
[6.49, 7.26, 6.99, 7.46, 6.87, 7.06]

Entry source: patent US20070189970A1
